Target: T1, C-terminally 6x Histidine-tagged Beta-Catenin (aa 134-668, 59 KD) (UniProt P35222 134-668)
T1 construct: range 134-668; Armadillo repeat region
T1 sequence: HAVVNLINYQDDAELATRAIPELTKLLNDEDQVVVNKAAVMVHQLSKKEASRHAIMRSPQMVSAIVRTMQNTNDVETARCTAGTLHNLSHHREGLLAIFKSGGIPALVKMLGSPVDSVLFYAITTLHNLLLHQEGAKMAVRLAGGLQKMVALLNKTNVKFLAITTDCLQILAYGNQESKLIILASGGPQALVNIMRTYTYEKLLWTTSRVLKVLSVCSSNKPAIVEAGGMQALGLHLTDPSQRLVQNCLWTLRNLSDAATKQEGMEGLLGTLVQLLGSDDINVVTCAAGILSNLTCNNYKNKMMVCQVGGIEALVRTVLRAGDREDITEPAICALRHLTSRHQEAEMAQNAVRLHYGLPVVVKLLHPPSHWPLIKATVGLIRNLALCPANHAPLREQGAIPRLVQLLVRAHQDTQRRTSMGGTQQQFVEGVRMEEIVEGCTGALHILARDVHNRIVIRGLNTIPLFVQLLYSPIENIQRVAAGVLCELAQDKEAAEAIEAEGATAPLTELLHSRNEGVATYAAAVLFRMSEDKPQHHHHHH
Assay: competitive fluorescence polarization, FAM-labelled linear probe as competitor, His-tagged beta-catenin 134-668
pIC50: −log10 of the molar value. Bridges are numbered along the chain shown (N, C = ends). [ ]: non-standard residue; d: D form. S5 = C=CCCC[C@](C)(N)C(=O)O
Give measured pIC50 for each item. Keep answers brief.

input: # lookup: pIC50 of Ac-RNLADVKS[S5]LVN[S5]S-NH2 (staple 9-13; SMILES CC(=O)N[C@@H](CCCNC(=N)N)C(=O)N[C@@H](CC(N)=O)C(=O)N[C@@H](CC(C)C)C(=O)N[C@@H](C)C(=O)N[C@@H](CC(=O)O)C(=O)N[C@H](C(=O)N[C@@H](CCCCN)C(=O)N[C@@H](CO)C(=O)N[C@@]1(C)CCCC=CCCC[C@@](C)(C(=O)N[C@@H](CO)C(N)=O)NC(=O)[C@H](CC(N)=O)NC(=O)[C@H](C(C)C)NC(=O)[C@H](CC(C)C)NC1=O)C(C)C) [SP5]
output: ≤ 4.00

input: Entry Ac-RDLADVK[S5]SLV[S5]ES-NH2 (staple 8-12; SMILES CC(=O)N[C@@H](CCCNC(=N)N)C(=O)N[C@@H](CC(=O)O)C(=O)N[C@@H](CC(C)C)C(=O)N[C@@H](C)C(=O)N[C@@H](CC(=O)O)C(=O)N[C@H](C(=O)N[C@@H](CCCCN)C(=O)N[C@@]1(C)CCCC=CCCC[C@@](C)(C(=O)N[C@@H](CCC(=O)O)C(=O)N[C@@H](CO)C(N)=O)NC(=O)[C@H](C(C)C)NC(=O)[C@H](CC(C)C)NC(=O)[C@H](CO)NC1=O)C(C)C, also called Ac-RDLADVK$SLV$ES-NH2) [SP2] : reported pIC50 = ?
output: ≤ 4.00

input: What does the data say about its pIC50? Entry: Ac-LGANAELISFKDEGEQEEKSSENSSAERDLADVKSSLV-NH2 (Linear, not crosslinked; differs from SP14 by Asp to Ala at the fifth residue of the peptide) [SP24]
output: ≤ 4.00

input: Consider the binder shown here: Ac-RGLANVK[S5]SLV[S5]ES-NH2 (staple 8-12; SMILES CC(=O)N[C@@H](CCCNC(=N)N)C(=O)NCC(=O)N[C@@H](CC(C)C)C(=O)N[C@@H](C)C(=O)N[C@@H](CC(N)=O)C(=O)N[C@H](C(=O)N[C@@H](CCCCN)C(=O)N[C@@]1(C)CCCC=CCCC[C@@](C)(C(=O)N[C@@H](CCC(=O)O)C(=O)N[C@@H](CO)C(N)=O)NC(=O)[C@H](C(C)C)NC(=O)[C@H](CC(C)C)NC(=O)[C@H](CO)NC1=O)C(C)C, also called Ac-RGLANVK$SLV$ES-NH2) [SP35] What is its recorded pIC50?
output: ≤ 4.00

input: Which pIC50 reading was recorded for the binder Ac-RDLA[S5]VKS[S5]LVNQS-NH2 (staple 5-9; SMILES CC(=O)N[C@@H](CCCNC(=N)N)C(=O)N[C@@H](CC(=O)O)C(=O)N[C@@H](CC(C)C)C(=O)N[C@@H](C)C(=O)N[C@@]1(C)CCCC=CCCC[C@@](C)(C(=O)N[C@@H](CC(C)C)C(=O)N[C@H](C(=O)N[C@@H](CC(N)=O)C(=O)N[C@@H](CCC(N)=O)C(=O)N[C@@H](CO)C(N)=O)C(C)C)NC(=O)[C@H](CO)NC(=O)[C@H](CCCCN)NC(=O)[C@H](C(C)C)NC1=O, also called Ac-RDLA$VKS$LVNQS-NH2) [SP6] ?
output: ≤ 4.00
